B1: tRNA (parent)
chain: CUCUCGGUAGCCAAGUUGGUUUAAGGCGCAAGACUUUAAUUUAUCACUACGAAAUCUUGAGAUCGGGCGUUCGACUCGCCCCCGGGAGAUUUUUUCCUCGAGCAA

- Variants of: B1
- Test name: nonsense suppression (GFP-seq) (ratio to wild type); higher = more function; SUP4oc tRNA, yeast GFP reporter sort-seq
Fewer inactive variants are shown than the library holds.
Each entry below carries its reported nonsense suppression.
Measured attribute: nonsense suppression

sequence_string="CUCUCGGUAGCUAAGUUGGUUUCAGGCGCAAGACUUUAAUUUAUCACUACGAAAUCUUGAGAUCGGGCGCUCGACUCGCCCCCGGGAGAUUUUUUCCUCGAGCAA [C12U A23C U70C]" measured_attribute="nonsense suppression" measurement="≤ 0.026"
sequence_string="CUCUCGGUAGCCAAGUUGGUUUAGGGCGCAAGACUUUAAUUUAUCACUACGAAAUCUUGAGAGCGGGCGUUCGACUCGCACCCGCGAGAUUUUUUCCUCGAGCAA [A24G U63G C80A G85C]" measured_attribute="nonsense suppression" measurement="≤ 0.026"
sequence_string="CUCUCGGUAGCCAAGUUGGUUUAAGGCGCAAGCCUUUAAUUUAUCACUACGAAAUCUUGAUAUCGUGCGUUCGACUCGCCCCCGGGAGAUUUUUUCCUCGAGCAA [A33C G61U G66U]" measured_attribute="nonsense suppression" measurement="≤ 0.026"
sequence_string="CUGUCGCUAGCCAAGUUGGUUUAAGGCGCAAGACUUUAAUUUAUCACUACGAAAACUUGAGAUCGGGCGUUCGACUCGCCCCCGGGAGAUUUUUUCCUCGAGCAA [C3G G7C U55A]" measured_attribute="nonsense suppression" measurement="≤ 0.026"
sequence_string="CUCUCGGUAGCCAAGUUGGUUUAAGGCGCAAGACUUUAAUUUAUCACUACGAAAUCUUGAGAUCGGGCGUUCGACUCACCCCUGGGAGAUUUUUUCCUCGAGCAA [G78A C83U]" measured_attribute="nonsense suppression" measurement=0.0266
sequence_string="CUCUCGGUAGCCAAGUUGGUUUAAGGCGCAAGGCUUUAAUUUAUCACUACGAAAUCUUGAGACCGGGCGUUCGACUCGCCCCCGGGAGAUUUUUUCCUCGAGCAA [A33G U63C]" measured_attribute="nonsense suppression" measurement=0.11
sequence_string="CUCUCGGUAGCCAAGCUGGUUUAAGGCGCAGGACUUUAAUUUAUCACUACGAAAUCUUGAGAUCGGGCGUUCGACUCGCCCCCGGGAGAUUUUUUCCUCGAGCAA [U16C A31G]" measured_attribute="nonsense suppression" measurement=1.07
sequence_string="CGCUCGGUAGCCAAGUUGGUUUUAGGCGCAAGACUUUAAUUUAUCACUACGAAAUCUUGAGAUCGGGCGUUCGACUCGCCCCCGGGAGAUUUUUUCCUCGAGCAA [U2G A23U]" measured_attribute="nonsense suppression" measurement="≤ 0.026"
sequence_string="CUCUCGGUAGCCAAGCUGGUUUAAGGCGCGAGACUUUAAUUUAUCACUACGAAAUCUUGAGAUCGGGCGUUCGACUCGCCCCCGGGAGAUUUUUUCCUCGAGCAA [U16C A30G]" measured_attribute="nonsense suppression" measurement=1.17
sequence_string="CUCUCGGUAGCCAAGUUGGUUUAAGAGGCAAGACUUUAAUUUAUCACUACGAAAUCUUGAGAUCGGGCGUUCGACUCGCCCCCGGGAGAUUUUUUCCUCGAGCAA [G26A C27G]" measured_attribute="nonsense suppression" measurement="≤ 0.026"
sequence_string="CUCUCGGUAGCCAAGUUGGUUAACGGCGCAAGACUUUAAUUUAUCACUACGAAAUCUUGAGAUCGGGUGUUCGACUCGCCCCCGGGAGAUUUUUUCCUCGAGCAA [U22A A24C C68U]" measured_attribute="nonsense suppression" measurement=0.215
sequence_string="CUCUAGGUAGCCAAGUUGGUUUAAGGCGCAAGACUUUAAUUUAUCACUACGAAAUCUUGAGAUCGGGCGUUCGACCCGCCCCCGGCAGAUUUUUUCCUCGAGCAA [C5A U76C G86C]" measured_attribute="nonsense suppression" measurement="≤ 0.026"
sequence_string="CUCUCGGUAGCCAAGUUGGUUUAAGGCGUAAGACUUUAAUUUAUCACUACGAAAUCUUGAGAUCGGGCGUUCGACUCGCCCCCGGGAGAUUUUUUCCUCGAGCAA [C29U]" measured_attribute="nonsense suppression" measurement=1.07
sequence_string="CUCUCGGUAGCCAAGUUGGUUUAAGGUGCACGACUUUAAUUUAUCACUACGAAAUCUUGACAUCGGGCGUUCGACUCGCCCCCGGGAGAUUUUUUCCUCGAGCAA [C27U A31C G61C]" measured_attribute="nonsense suppression" measurement="≤ 0.026"
sequence_string="CUCUCGGUAGCCAAAUUGGUUUAAGUCGCAAGACUUUAAUUUAUCACUACGAAAUCUUGAGAUCGGGCGUUCGACUCGCCCCCGGGAGAUUUUUUCCUCGAGCAA [G15A G26U]" measured_attribute="nonsense suppression" measurement="≤ 0.026"
sequence_string="CUCUCGGUAGCCAAGUUGGUUUAAGGCGCAAGACUUUAAUUUAUCACUACGAAAUCUUGAGAUCGGGCGUUCGACACGCUCCCGGGAGAUUUUUUCCUCGAGCAA [U76A C80U]" measured_attribute="nonsense suppression" measurement=0.0419
sequence_string="CUCUCGCUAGCCAAGUUGGUUUAAGGCGGAAGACUUUAAUUUAUCACUACGAAAUCUUGAGAUCGGGCGUUCGACUCGCCCCCGGGAGAUUUUUUCCUCGAGCAA [G7C C29G]" measured_attribute="nonsense suppression" measurement="≤ 0.026"
sequence_string="CUCUCGGUAGCCAAGUUGGUUUAAGGCGCAAGACUUUAAUUUAUCACUACGAAAUAUUGAGAUCCGGCGUUCGACUCGCCCCCGGGAGAUUUUUUCCUCGAGCAA [C56A G65C]" measured_attribute="nonsense suppression" measurement="≤ 0.026"
sequence_string="CUCUCGGUAGCCAAGUUGGUUUAAGGCGUAAGACUUUAAUUUAUCACUACGAAAUCUUGACAUCGGGCGUUCGACUCGCCCCCGGGAGAUUUUUUCCUCGAGCAA [C29U G61C]" measured_attribute="nonsense suppression" measurement=0.0261
sequence_string="CUCUCGGUAGCCAAGUUGGUUUAAGGCGCAAGACUUUAAUUUAUCACUACGAAAUCUUGAGAUCGGGCGCUCGACUCACCCCCGGGAGAUUUUUUCCUCGAGCAA [U70C G78A]" measured_attribute="nonsense suppression" measurement=0.0308
